All figures here come from the supplement of paper PMC10065799.

Measured phosphorylation enrichment, listed per entry for reference.
Assayed system: Fes (UniProt P07332)
Sequence (P07332 whole entry, looked up): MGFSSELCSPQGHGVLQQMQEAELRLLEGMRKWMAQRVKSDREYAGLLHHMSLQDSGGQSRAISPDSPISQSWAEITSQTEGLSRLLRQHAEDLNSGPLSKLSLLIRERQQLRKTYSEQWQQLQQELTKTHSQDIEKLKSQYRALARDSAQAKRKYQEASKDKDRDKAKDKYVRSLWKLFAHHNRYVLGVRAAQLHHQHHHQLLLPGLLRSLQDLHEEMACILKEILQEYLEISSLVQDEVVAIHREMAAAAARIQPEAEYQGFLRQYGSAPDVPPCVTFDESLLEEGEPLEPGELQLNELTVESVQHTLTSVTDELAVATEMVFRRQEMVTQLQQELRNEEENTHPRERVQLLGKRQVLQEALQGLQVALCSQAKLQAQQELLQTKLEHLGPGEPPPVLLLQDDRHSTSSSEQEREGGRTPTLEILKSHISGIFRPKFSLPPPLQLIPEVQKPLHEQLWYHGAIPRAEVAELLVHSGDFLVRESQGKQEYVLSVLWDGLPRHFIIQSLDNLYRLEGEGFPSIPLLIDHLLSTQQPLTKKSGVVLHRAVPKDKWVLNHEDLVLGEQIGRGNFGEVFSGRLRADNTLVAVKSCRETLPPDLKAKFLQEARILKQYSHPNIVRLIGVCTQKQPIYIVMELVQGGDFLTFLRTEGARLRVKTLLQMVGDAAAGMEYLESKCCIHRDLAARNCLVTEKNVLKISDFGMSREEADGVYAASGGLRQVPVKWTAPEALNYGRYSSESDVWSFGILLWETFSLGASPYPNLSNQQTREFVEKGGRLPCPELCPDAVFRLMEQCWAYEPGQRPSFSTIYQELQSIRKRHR
Assay details: phosphorylation enrichment, bacterial display (enrichment ratio); higher = better substrate or ligand; peptides without Tyr show the background

Sequence content	phosphorylation enrichment
QQLDEYQELLD [LMNA_Y359]	1.57
MGHVNYGAYIN [GLB1_Y485_R482H]	0.661
QHVPDYRQNVY [PCDHGA1_Y890]	0.829
RALLNYIASKY [GSTA3_Y74_I71L]	0.959
HLTNQFMQRVA [PABPC4_Y382_Y382F]	0.809
FLTSSYINIST [IL23R_Y178_YF]	0.779
RLNWIYFKDQT [RS1_Y165_YF]	2.3
SLLLSYYLIKW [NUP160_Y773_P768S]	1.24
IDSTPYGQWFE [RPS8_Y109_R110G_YF]	1.18
SVVVPYEPREV [TP53_Y220_P223R]	0.998
AKLVQYYMEHH [PTPN11_Y80_E76K]	0.839
YEEDSYSHVMA [FDPS_Y388_I391V]	1.17
AEQDCYHGAIP [FER_Y461_W460C]	1.01
SAASSYSFSDL [EMD_Y59]	0.951
GNKENYGLPQP [BUB1_Y538]	0.69
EDDIIYTQDFT [STK11_Y362]	1.37

* * *

Measured SH2 binding enrichment, listed per entry for reference.
Assayed system: SHP2-C SH2;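 also: peptide library displayed on the E. coli surface as eCPX fusions, selected cells deep-sequenced, score is each peptide's frequency after selection divided by its frequency in the input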
Assay details: SH2 binding enrichment of the phosphorylated peptide, bacterial display (enrichment ratio); higher = better substrate or ligand; peptides without Tyr show the background
Measured metric: SH2 binding enrichment

Sequence content	Recorded result
FQSKHYACIRQ [TIMP3_Y182_YF]	6.08
PPTYRYERGSR [INPPL1_Y663]	0.363
SKEPFYVRCIK [MYO1D_Y586_YF]	0.79
PLDGEYFTLPI [TP53_Y327_Q331P]	0.61
HSREDYFECFQ [ZIM2_Y411_Q408R]	0.766
ADKSAYLMGLN [MYH7_Y386]	0.793
IEEGTYGVVYR [CDK11B_Y449]	0.668
SSDKVYAHQMD [MLH1_Y379_V384D]	0.552
LLSVAYKNVVR [YWHAZ_Y48_G53R]	0.566
SFGENYDNSKS [MAN1B1_Y60]	0.571
FDAHIYEGRVI [PRKCD_Y64]	0.654
APGDAYGDAGY [SYP_Y250]	0.616
SSNTEYLSASD [INSR_Y999_P997T]	0.573
GHPYAYDWISI [BEST1_Y227_L224P]	1.07
RISGVYKLPPD [ANGPTL7_Y145]	0.857
IGEGTYGVLYK [CDK2_Y15_V18L]	0.514
VSSPKYGSNDE [TMCC2_Y473_D476N]	0.657
VMICAYLLHRG [PTEN_Y138]	0.714
GDKKAYVRLAP [RPL23A_Y137_E133D]	0.757
MPPHICAITDT [MYH9_Y151_Y151C]	0.706
ISRDVYSTDYY [NTRK2_Y702_M697I]	0.719
GGGFGYQKTKK [DDX18_Y643]	0.808
TGSFTCEAVEL [MTMR14_Y462_Y462C]	0.676
QYNIQYSSSAA [ERBB2IP_Y981]	0.679
TSYSGYRYHRH [NKAPL_Y94]	1.24
EEQKRYFNAMK [SCN5A_Y1494_K1493R_YF]	1
ALWFIYLHTRS [ENG_Y614_S615L_YF]	0.882
ASTHVYQIMNH [ITK_Y588]	0.833
AAARPYHIQKW [ACSBG1_Y677]	1.27
GDFLSYREFHL [ERBIN_Y1107_S1112L_YF]	0.845
EPAVLYNLKER [MYH7_Y103_D107E]	0.653
SPPILYSFYLD [FCRL6_Y239]	1.14
EESREYDRLYE [PIK3R1_Y463_K459E]	0.701
YEDTLYTVLHR [UNC13D_Y61_A59T]	0.525
PCLLRYLQLDF [ASB10_Y457_R453C]	1.26
CIILLYIFLKN [STXBP1_Y411_R406C]	1.74
HLLRIYYDITD [MMP27_Y307_W304L]	0.704
EYFDGYWEYSV [ITGA2B_Y265_G267E]	0.758
PLFKICVAELI [MRPL28_Y230_Y230C]	0.829
FADGVYLALEE [DUOX2_Y70_Q71L_YF]	0.623
MEIHAYRKLSE [LMNA_Y376_L380S]	0.641
CTTIHYNYMCT [TP53_Y234_N239T]	2.78
CSHKFYGKQCC [ADAMTS16_Y1211]	1.01
FLNSIYQSRDE [ROS1_Y2227_K2228Q]	0.74
AAVDNYCRHNF [HLA-DRB1_Y107_T106N_YF]	0.772
VLRQVYVDFEG [KMT2B_Y1707_R1705Q]	1
FSALDYKIFFF [WDPCP_Y210_L205F_YF]	0.401
EEGNPYFSSTR [MCCC2_Y520_A524T_YF]	0.588
HELFVYKSDEN [DOCK3_Y548_C550S_YF]	0.662
QNAGDYYDLYG [PTPN11_Y62_T59A]	0.625
HRGHLYLAIEF [TEK_Y899_Y897H_YF]	0.722
SLDLSYFHTSS [EMD_Y181_P183H_YF]	0.591
PQQLWYTHKKK [UBTF_Y207_E210K]	0.702
NTYEKYWLFYQ [GATM_Y103_P105L]	1.12
